Source: patent EP4755880A1

- Procedure text: Pharmacokinetics in SD rats after intravenous injection or gavage
- Experimental parameters: rat, plasma, po, 5 mg/kg
Assay metric: half-life (h)

- Sample smiles: "Cc1nc2c(OC(F)F)cc(CN3CCN(c4ccc(C(=O)NC5CC5)nc4F)CC3)cc2[nH]c1=O"
  half-life (h): 3.4
- Sample smiles: "CC#Cc1cc(CN2CC=C(c3ccc(C(=O)NC4CC4)nc3F)CC2)c(F)c2[nH]c(=O)c(C)nc12"
  half-life (h): 2.8
- Sample smiles: "CNC(=O)c1ccc(N2CCN(Cc3cc(OC(F)F)c4nc(C)c(=O)[nH]c4c3)CC2)c(F)n1"
  half-life (h): 4.4
- Sample smiles: "CC#Cc1cc(CN2CCN(c3ccc(C(=O)NC)nc3F)CC2)cc2[nH]c(=O)c(C)nc12"
  half-life (h): 3.3
- Sample smiles: "CNC(=O)c1ccc(N2CCN(Cc3cc(OC(C)C)c4nc(C)c(=O)[nH]c4c3)CC2)c(F)n1"
  half-life (h): 3.7
- Sample smiles: "CC#Cc1cc(CN2CCN(c3ccc(C(=O)NC4CC4)nc3F)CC2)cc2[nH]c(=O)c(C)nc12"
  half-life (h): 2.8
- Sample smiles: "CNC(=O)c1ccc(C2=CCN(Cc3cc(OC(F)F)c4nc(C)c(=O)[nH]c4c3)CC2)c(F)n1"
  half-life (h): 4.5
- Sample smiles: "CNC(=O)c1ccc(N2CCN(Cc3cc(OC(F)F)c4nc(C)c(=O)[nH]c4c3)CC2)c(C)n1"
  half-life (h): 3.8
- Sample smiles: "CNC(=O)c1ccc(N2CCN(Cc3cc(-c4ccccc4)c4nc(C)c(=O)[nH]c4c3)CC2)c(F)n1"
  half-life (h): 3.4

====

- Procedure text: in vivo
- Experimental parameters: SD, rat, iv, 1 mg/kg
Assay metric: AUC(0-t) (ng·h/mL)
Field: numeric (ng·h/mL). Do not append units.

Form: compound = CC#Cc1cc(CN2CC=C(c3ccc(C(=O)NC)nc3F)CC2)cc2[nH]c(=O)c(C)nc12 ; AUC(0-t) = 1260

====

- Procedure text: Pharmacokinetics in mice after intravenous injection or gavage
- Experimental parameters: BALB/c, mouse, plasma, po, 5 mg/kg
Assay metric: Cmax (ng/mL)

- Sample smiles: "CNC(=O)c1ccc(C2=CCN(Cc3cc(OC(F)F)c4nc(C)c(=O)[nH]c4c3)CC2)c(F)n1"
  Readout unit: "ng/mL"
  Cmax: 19000

I: Cc1nc2c(OC(F)F)cc(CN3CCN(c4ccc(C(=O)NC5CC5)nc4F)CC3)cc2[nH]c1=O
II: CNC(=O)c1ccc(N2CCN(Cc3cc(-c4ccccc4)c4nc(C)c(=O)[nH]c4c3)CC2)c(F)n1
III: CNC(=O)c1ccc(N2CCN(Cc3cc(OC(F)F)c4nc(C)c(=O)[nH]c4c3F)CC2)c(F)n1
### Prompt Please list these compounds in decreasing order of Cmax. Show the ranking through the labels, in the order asked for.
### Response I, III, II

P: CNC(=O)c1ccc(N2CCN(Cc3cc(OC(F)F)c4nc(C)c(=O)[nH]c4c3)CC2)c(C)n1
Q: CC#Cc1cc(CN2CCN(c3ccc(C(=O)NC)nc3F)CC2)cc2[nH]c(=O)c(C)nc12
### Prompt // which entry has the larger Cmax value, P or Q ? Pick one and reply with its label.
### Response P
(P: 10700 ng/mL, Q: 3230 ng/mL)
